# test-system: recombinant guanylate cyclase reporter cell line (Rattus norvegicus, UniProt P20595)
# Construct: expressed in transfected cells
# Sequence (P20595 whole entry): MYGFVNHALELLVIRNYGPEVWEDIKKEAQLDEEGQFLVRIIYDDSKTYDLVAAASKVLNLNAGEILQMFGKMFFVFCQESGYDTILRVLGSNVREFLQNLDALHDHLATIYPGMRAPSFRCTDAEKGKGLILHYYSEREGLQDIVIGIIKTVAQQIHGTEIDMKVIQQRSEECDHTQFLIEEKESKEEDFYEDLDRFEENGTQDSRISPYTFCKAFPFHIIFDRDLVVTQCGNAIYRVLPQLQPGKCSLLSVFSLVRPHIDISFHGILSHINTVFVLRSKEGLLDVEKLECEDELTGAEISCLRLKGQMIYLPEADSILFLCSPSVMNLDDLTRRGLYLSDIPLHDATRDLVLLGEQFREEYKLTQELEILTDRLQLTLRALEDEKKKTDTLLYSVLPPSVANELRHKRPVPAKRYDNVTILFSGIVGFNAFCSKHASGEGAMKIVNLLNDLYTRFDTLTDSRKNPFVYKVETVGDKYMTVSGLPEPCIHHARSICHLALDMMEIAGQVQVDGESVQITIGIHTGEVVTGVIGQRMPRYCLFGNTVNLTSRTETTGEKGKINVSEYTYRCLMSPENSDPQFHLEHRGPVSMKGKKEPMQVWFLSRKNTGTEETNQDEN
# Sequence (P19686 whole entry partner): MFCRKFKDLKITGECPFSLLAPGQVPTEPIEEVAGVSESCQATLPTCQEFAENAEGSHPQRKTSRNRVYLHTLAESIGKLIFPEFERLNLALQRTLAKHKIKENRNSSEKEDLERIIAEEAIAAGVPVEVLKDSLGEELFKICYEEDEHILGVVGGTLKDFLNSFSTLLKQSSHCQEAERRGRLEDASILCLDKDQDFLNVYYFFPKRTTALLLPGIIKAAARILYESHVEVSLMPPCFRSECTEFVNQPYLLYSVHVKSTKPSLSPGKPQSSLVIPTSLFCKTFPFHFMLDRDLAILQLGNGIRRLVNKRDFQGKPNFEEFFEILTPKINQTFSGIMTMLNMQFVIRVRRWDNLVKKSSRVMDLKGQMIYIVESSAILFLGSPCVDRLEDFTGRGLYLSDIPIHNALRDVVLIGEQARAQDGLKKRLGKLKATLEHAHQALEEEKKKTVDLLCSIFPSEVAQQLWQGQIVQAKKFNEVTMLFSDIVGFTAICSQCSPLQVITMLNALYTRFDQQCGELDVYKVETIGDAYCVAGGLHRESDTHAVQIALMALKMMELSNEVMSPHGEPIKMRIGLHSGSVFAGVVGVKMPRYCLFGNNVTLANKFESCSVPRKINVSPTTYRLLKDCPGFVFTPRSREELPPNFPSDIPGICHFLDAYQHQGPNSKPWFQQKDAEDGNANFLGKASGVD
# protocol-text: Effect on a recombinant guanylate cyclase reporter cell line
# Format: cell-based
# condition-parameters: MEC = minimum effective concentration; in some cases mean values from individual determinations
Counter-ions that a name gives are not always drawn.
measure-name: MEC (nM)
Reply numerically in nM, unit not repeated.

Example entries and their recorded answers appear below.
[
  {
    "compound": "CCCN1CCN(c2ccc(-c3ccc(Cl)cc3N3CCCC(n4ncc(C(=O)O)c4C(F)(F)F)C3)cc2)CC1 (single isomer, unassigned) [Example 4, hydrochloride]",
    "unit-string": "nM",
    "MEC": 3.0
  },
  {
    "compound": "O=C(O)c1cnn(C2CCCN(c3cc(Cl)ccc3-c3ccc(N4CCN(C(=O)[C@H]5CC5(F)F)CC4)cc3)C2)c1C(F)(F)F (single isomer, unassigned) [Example 48]",
    "unit-string": "nM",
    "MEC": 3.0
  }
]

Request: Consider the compound O=C(O)c1cnn(C2CCCN(c3cc(Cl)ccc3-c3ccc(N4CCN(CC5CC5)CC4)c(F)c3)C2)c1C(F)(F)F (single isomer, unassigned) [Example 71, hydrochloride] and give its measured MEC.
Result: 10.0

Request: For CCOC(=O)N1CCN(c2ccc(-c3ccc(Cl)cc3N3CCCC(n4ncc(C(=O)O)c4C(F)(F)F)C3)cc2)CC1 (single isomer, unassigned) [Example 55] then?
Result: 3.0

Request: For CC(C)(F)C(=O)N1CCN(c2ccc(-c3ccc(Cl)cc3N3CCCC(n4ncc(C(=O)O)c4C(F)(F)F)C3)cc2)CC1 (single isomer, unassigned) [Example 39] then?
Result: 10.0
